All figures here come from the FLAb antibody collection (doi:10.7554/elife.23156).

B1: scFv; the commonest letter at each place (parent)
chain 1: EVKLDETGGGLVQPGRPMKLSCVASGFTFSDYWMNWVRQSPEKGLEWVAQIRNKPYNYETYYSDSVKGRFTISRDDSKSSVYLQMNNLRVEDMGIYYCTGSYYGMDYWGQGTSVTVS
chain 2: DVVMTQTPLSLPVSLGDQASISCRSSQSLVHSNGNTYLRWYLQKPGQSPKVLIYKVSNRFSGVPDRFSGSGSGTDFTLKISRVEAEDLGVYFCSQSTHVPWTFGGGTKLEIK

Variants of: B1
Method Notes: Kd (Tite-Seq)
Settings: with fluorescein; format: scFv 4-4-20, heavy + light
Measured Metric: Kd

So, chain 1 F29M N35W ? Its Kd was ≥ 10 µM

So, chain 1 M105I W108G ? Its Kd was ≥ 10 µM

So, chain 1 D106W W108S ? Its Kd was ≥ 10 µM

So, chain 1 D106G ? Its Kd was ≥ 10 µM

So, chain 1 S101R Y107I ? Its Kd was ≥ 10 µM

So, chain 1 S101F M105G ? Its Kd was ≥ 10 µM

So, chain 1 W108V ? Its Kd was ≤ 0.000316 µM

So, chain 1 Y102P W108Y ? Its Kd was ≥ 10 µM

So, chain 1 T28Y D31Y ? Its Kd was 0.00184 µM

So, chain 1 D31S V37P ? Its Kd was ≥ 10 µM

So, chain 1 S101L Y103W Y107W ? Its Kd was ≥ 10 µM

So, chain 1 G100D G109H ? Its Kd was ≥ 10 µM

So, chain 1 Y103P Y107D ? Its Kd was ≥ 10 µM

So, chain 1 D106T ? Its Kd was 0.00785 µM

So, chain 1 Y102A M105T ? Its Kd was 0.176 µM

So, chain 1 G100C Y102A ? Its Kd was 0.00279 µM

So, chain 1 S101P D106G W108F ? Its Kd was ≥ 10 µM

So, chain 1 G100Y D106S ? Its Kd was ≥ 10 µM

So, chain 1 F29Y M34K ? Its Kd was ≥ 10 µM

So, chain 1 D31W W36E ? Its Kd was ≥ 10 µM

So, chain 1 W108E G109V ? Its Kd was ≥ 10 µM

So, chain 1 G104V G109W ? Its Kd was ≥ 10 µM

So, chain 1 Y32C V37Q ? Its Kd was ≥ 10 µM

So, chain 1 S30A D31A V37C ? Its Kd was 0.00158 µM

So, chain 1 Y102A G109K ? Its Kd was ≥ 10 µM

So, chain 1 G100V G104A ? Its Kd was ≥ 10 µM

So, chain 1 D106I W108S ? Its Kd was ≥ 10 µM

So, chain 1 Y102W G104H G109I ? Its Kd was ≥ 10 µM

So, chain 1 D31C W33C ? Its Kd was ≥ 10 µM

So, chain 1 G100I Y107E ? Its Kd was ≥ 10 µM

So, chain 1 W108I G109F ? Its Kd was 0.02 µM

So, chain 1 S101N Y107M ? Its Kd was ≥ 10 µM

So, chain 1 M34G W36A ? Its Kd was ≥ 10 µM

So, chain 1 M34H N35P ? Its Kd was ≥ 10 µM

So, chain 1 N35E W36E ? Its Kd was ≥ 10 µM

So, chain 1 G104T D106C Y107Q ? Its Kd was ≥ 10 µM

So, chain 1 M34I W36K ? Its Kd was ≥ 10 µM

So, chain 1 Y32L M34T W36I ? Its Kd was ≥ 10 µM

So, chain 1 G104H D106H ? Its Kd was ≥ 10 µM

So, chain 1 D31N V37I ? Its Kd was 0.00325 µM

So, chain 1 F29Y M34E ? Its Kd was ≥ 10 µM

So, chain 1 F29I W36L ? Its Kd was ≥ 10 µM

So, chain 1 Y32M W33V ? Its Kd was ≥ 10 µM

So, chain 1 F29D N35F W36G ? Its Kd was ≥ 10 µM

So, chain 1 Y102P M105S ? Its Kd was ≥ 10 µM

So, chain 1 F29L M34K W36P ? Its Kd was 0.228 µM
